Data credit: ChEMBL document CHEMBL3885861

Reported IP values for a set of compounds
Species on record: Rattus norvegicus
Procedure Summary: Open TG-GATES - Regimen: Single
Type: toxicity, organism-based, Sprague-Dawley
Design: regimen Single, gender Male, age 6 weeks
Assay Context: in vivo, po, 0 mg/kg, 9 h, tissue Plasma, route gavage, dose level Control
Property: IP

compound="CSc1ccc2c(c1)N(CCC1CCCCN1C)c1ccccc1S2 (stereo unspecified)" property=IP recorded_result="10.7 mg/dL"
compound=CN(C)CCC=C1c2ccccc2CCc2ccccc21 property=IP recorded_result="10 mg/dL"
compound=Cn1c(=O)c2[nH]cnc2n(C)c1=O.O property=IP recorded_result="9.2 mg/dL"
compound=C[C@H](CS)C(=O)N1CCC[C@H]1C(=O)O property=IP recorded_result="10 mg/dL"
compound="CCc1cc(C(N)=S)ccn1 [ETHIONAMIDE]" property=IP recorded_result="10.2 mg/dL"
compound=Clc1ccccc1CN1CCc2sccc2C1 property=IP recorded_result="10 mg/dL"

* * *

Reported MCHC values for a set of compounds
Organism: Rattus norvegicus
Procedure Summary: Open TG-GATES - Regimen: Single
Type: toxicity, organism-based, Sprague-Dawley
Parameters: regimen Single, gender Male, age 6 weeks
Assay Context: in vivo, po, 1000 mg/kg, 6 h, tissue Blood, route gavage, dose level High
Property: MCHC (%)

compound=O=C(O)c1cn(C2CC2)c2cc(N3CCNCC3)c(F)cc2c1=O unit_text=% recorded_result=32.9
compound="CCc1cc(C(N)=S)ccn1 [ETHIONAMIDE]" unit_text=% recorded_result=33.5
compound=C[C@H](CS)C(=O)N1CCC[C@H]1C(=O)O unit_text=% recorded_result=33.1
compound=O=C(O)c1cc(/N=N/c2ccc(S(=O)(=O)Nc3ccccn3)cc2)ccc1O unit_text=% recorded_result=34.2
compound=Clc1ccccc1CN1CCc2sccc2C1 unit_text=% recorded_result=35.1

* * *

Organism: Rattus norvegicus
Procedure Summary: Open TG-GATES - Regimen: Single
Type: toxicity, organism-based, Sprague-Dawley
Design: regimen Single, gender Male, age 6 weeks
Assay Context: in vivo, po, 300 mg/kg, 3 h, tissue Plasma, route gavage, dose level Middle
Reported TG values for a set of compounds
Property: TG (mg/dL)

compound=C[C@H](CS)C(=O)N1CCC[C@H]1C(=O)O property=TG unit_text=mg/dL recorded_result=68.6
compound="CCc1cc(C(N)=S)ccn1 [ETHIONAMIDE]" property=TG unit_text=mg/dL recorded_result=63
compound=O=C(O)c1cc(/N=N/c2ccc(S(=O)(=O)Nc3ccccn3)cc2)ccc1O property=TG unit_text=mg/dL recorded_result=59.6
compound=O=C(O)c1cn(C2CC2)c2cc(N3CCNCC3)c(F)cc2c1=O property=TG unit_text=mg/dL recorded_result=43.6

* * *

Reported PT values for a set of molecules
Species on record: Rattus norvegicus
Procedure Summary: Open TG-GATES - Regimen: Daily Repeat
Format: toxicity, organism-based, Sprague-Dawley
Set-up: regimen Daily Repeat, gender Male, age 6 weeks
Assay Context: in vivo, po, 0 mg/kg, 72 h, tissue Blood, route gavage, dose level Control, time 3 day
Property: PT (s)

molecule="NC(=O)N1c2ccccc2C=Cc2ccccc21 [CARBAMAZEPINE]" unit_text=s recorded_result=12.3
molecule="C[C@H](CS)C(=O)N1CCC[C@H]1C(=O)O [CAPTOPRIL]" unit_text=s recorded_result=11.3
molecule="NC(=O)N/N=C/c1ccc([N+](=O)[O-])o1 [NITROFURAZONE]" unit_text=s recorded_result=14.5
molecule="COc1ccc(Cc2nccc3cc(OC)c(OC)cc23)cc1OC [PAPAVERINE]" unit_text=s recorded_result=15.8
molecule="Cn1c(=O)c2[nH]cnc2n(C)c1=O.O [THEOPHYLLINE]" unit_text=s recorded_result=15
molecule="CSc1ccc2c(c1)N(CCC1CCCCN1C)c1ccccc1S2 (stereo unspecified) [THIORIDAZINE]" unit_text=s recorded_result=11.9
molecule="COc1ccc2c(c1)c(CC(=O)O)c(C)n2C(=O)c1ccc(Cl)cc1 [INDOMETHACIN]" unit_text=s recorded_result=11.2
molecule="CCc1cc(C(N)=S)ccn1 [ETHIONAMIDE]" unit_text=s recorded_result=11.9
molecule="Clc1ccccc1CN1CCc2sccc2C1 [TICLOPIDINE]" unit_text=s recorded_result=11.7
molecule="CN(C)CCC=C1c2ccccc2CCc2ccccc21 [AMITRIPTYLINE]" unit_text=s recorded_result=15.5
molecule="O=C(O)c1cc(/N=N/c2ccc(S(=O)(=O)Nc3ccccn3)cc2)ccc1O [SULFASALAZINE]" unit_text=s recorded_result=12.4

* * *

Species: Rattus norvegicus
Procedure Summary: Open TG-GATES - Regimen: Single
Assay type: toxicity, organism-based, Sprague-Dawley
Parameters: regimen Single, gender Male, age 6 weeks
Assay Context: in vivo, po, 300 mg/kg, 6 h, tissue Plasma, route gavage, dose level Middle
Reported gamma-GTP values for a set of molecules
Property: gamma-GTP (IU/L)

molecule=O=C(O)c1cc(/N=N/c2ccc(S(=O)(=O)Nc3ccccn3)cc2)ccc1O recorded_result=1
molecule="CCc1cc(C(N)=S)ccn1 [ETHIONAMIDE]" recorded_result=1
molecule=Clc1ccccc1CN1CCc2sccc2C1 recorded_result=1.2
molecule=O=C(O)c1cn(C2CC2)c2cc(N3CCNCC3)c(F)cc2c1=O recorded_result=1.4
molecule=C[C@H](CS)C(=O)N1CCC[C@H]1C(=O)O recorded_result=2

* * *

Species on record: Rattus norvegicus
Procedure Summary: Open TG-GATES - Regimen: Single
Format: toxicity, organism-based, Sprague-Dawley
Parameters: regimen Single, gender Male, age 6 weeks
Assay Context: in vivo, po, 1000 mg/kg, 24 h, tissue Blood, route gavage, dose level High
Property: Hb (g/dL)

compound="O=C(O)c1cn(C2CC2)c2cc(N3CCNCC3)c(F)cc2c1=O [CIPROFLOXACIN]" unit_text=g/dL recorded_result=13.5
compound="CCc1cc(C(N)=S)ccn1 [ETHIONAMIDE]" unit_text=g/dL recorded_result=15.3
compound="Clc1ccccc1CN1CCc2sccc2C1 [TICLOPIDINE]" unit_text=g/dL recorded_result=13.9
compound="O=C(O)c1cc(/N=N/c2ccc(S(=O)(=O)Nc3ccccn3)cc2)ccc1O [SULFASALAZINE]" unit_text=g/dL recorded_result=13.5
compound="C[C@H](CS)C(=O)N1CCC[C@H]1C(=O)O [CAPTOPRIL]" unit_text=g/dL recorded_result=12.8

* * *

Species on record: Rattus norvegicus
Procedure Summary: Open TG-GATES - Regimen: Daily Repeat
Format: toxicity, organism-based, Sprague-Dawley
Design: regimen Daily Repeat, gender Male, age 6 weeks
Assay Context: in vivo, po, 0 mg/kg, […], tissue Liver, route gavage, dose level Control, time 7 day
Property: LIVER (g)

compound="COc1ccc2c(c1)c(CC(=O)O)c(C)n2C(=O)c1ccc(Cl)cc1 [INDOMETHACIN]" recorded_result=13.2
compound="Clc1ccccc1CN1CCc2sccc2C1 [TICLOPIDINE]" recorded_result=11.3
compound="O=C(O)c1cn(C2CC2)c2cc(N3CCNCC3)c(F)cc2c1=O [CIPROFLOXACIN]" recorded_result=11.7
compound="CO[C@H]1/C=C/O[C@@]2(C)Oc3c(C)c(O)c4c(O)c(c(/C=N/N5CCN(C)CC5)c(O)c4c3C2=O)NC(=O)/C(C)=C\\C=C\\[C@H](C)[C@H](O)[C@@H](C)[C@@H](O)[C@@H](C)[C@H](OC(C)=O)[C@@H]1C [RIFAMPIN]" recorded_result=13.1
compound="NC(=O)N/N=C/c1ccc([N+](=O)[O-])o1 [NITROFURAZONE]" recorded_result=12.2
compound="CCc1cc(C(N)=S)ccn1 [ETHIONAMIDE]" recorded_result=13.2
compound="CN(C)CCC=C1c2ccccc2CCc2ccccc21 [AMITRIPTYLINE]" recorded_result=11.9
compound="Cn1c(=O)c2[nH]cnc2n(C)c1=O.O [THEOPHYLLINE]" recorded_result=12.9

* * *

Species: Rattus norvegicus
Procedure Summary: Open TG-GATES - Regimen: Single
Format: toxicity, organism-based, Sprague-Dawley
Parameters: regimen Single, gender Male, age 6 weeks
Assay Context: in vivo, po, 1000 mg/kg, 9 h, tissue Plasma, route gavage, dose level High
Reported TG values for a set of compounds
Property: TG

compound=O=C(O)c1cc(/N=N/c2ccc(S(=O)(=O)Nc3ccccn3)cc2)ccc1O property=TG recorded_result="23 mg/dL"
compound="CCc1cc(C(N)=S)ccn1 [ETHIONAMIDE]" property=TG recorded_result="14.8 mg/dL"
compound=O=C(O)c1cn(C2CC2)c2cc(N3CCNCC3)c(F)cc2c1=O property=TG recorded_result="22.2 mg/dL"
compound=C[C@H](CS)C(=O)N1CCC[C@H]1C(=O)O property=TG recorded_result="27.4 mg/dL"
